Collected ILS values appear next to each entry.
- Organism: Mus musculus
- assay remarks: Effect in increasing life span of mice bearing L1210 leukemia
- Type: functional

{"columns": ["compound", "units of measure", "sign qualifier", "ILS"],
 "data": [
  ["CC[C@@]1(O)C(=O)OCc2c1cc1n(c2=O)Cc2cc3c(CN(C)C)c(O)ccc3nc2-1", "%", "=", 173],
  ["CC[C@@]1(O)C(=O)OCc2c1cc1n(c2=O)Cc2cc3c(CN(C)c4ccccc4)c(O)ccc3nc2-1", "%", "=", 138],
  ["CC[C@@]1(O)C(=O)OCc2c1cc1n(c2=O)Cc2cc3c(CC#N)c(O)ccc3nc2-1", "%", ">", 200],
  ["CCC1(O)C(=O)OCc2c1cc1n(c2=O)Cc2c-1nc1ccccc1c2CCNC (centres undefined)", "%", "=", 43],
  ["CC[C@@]1(O)C(=O)OCc2c1cc1n(c2=O)Cc2cc3c(C)cccc3nc2-1", "%", ">", 200],
  ["CC[C@@]1(O)C(=O)OCc2c1cc1n(c2=O)Cc2cc3c(CNC4CCCCC4)c(O)ccc3nc2-1", "%", ">", 200],
  ["CCC1(O)C(=O)OCc2c1cc1n(c2=O)Cc2c-1nc1ccc(CC#N)cc1c2C (centres undefined)", "%", "=", 106],
  ["CCC1(O)C(=O)OCc2c1cc1n(c2=O)Cc2c-1nc1ccc(CCN)cc1c2C (centres undefined)", "%", ">", 33],
  ["CC[C@@]1(O)C(=O)OCc2c1cc1n(c2=O)Cc2cc3c(CN4CCC(N5CCCCC5)CC4)c(O)ccc3nc2-1", "%", ">", 44],
  ["CC[C@@]1(O)C(=O)OCc2c1cc1n(c2=O)Cc2cc3cc(O)ccc3nc2-1 [HYDROXYCAMPTOTHECIN]", "%", "=", 78],
  ["CC[C@@]1(O)C(=O)OCc2c1cc1n(c2=O)Cc2cc3c(CSCCN(C)C)c(O)ccc3nc2-1", "%", ">", 112],
  ["CCOCc1c(O)ccc2nc3c(cc12)Cn1c-3cc2c(c1=O)COC(=O)[C@]2(O)CC", "%", "=", 125],
  ["CC[C@@]1(O)C(=O)OCc2c1cc1n(c2=O)Cc2cc3c(CCN)c(O)ccc3nc2-1", "%", "=", 75],
  ["CCc1c2c(nc3ccc(O)cc13)-c1cc3c(c(=O)n1C2)COC(=O)[C@]3(O)CC [7-ETHYL-10-HYDROXYCAMPTOTHECIN]", "%", "=", 144],
  ["CC[C@@]1(O)C(=O)OCc2c1cc1n(c2=O)Cc2cc3c(CNCCO)c(O)ccc3nc2-1", "%", "=", 62],
  ["CC[C@@]1(O)C(=O)OCc2c1cc1n(c2=O)Cc2cc3cc(C#N)ccc3nc2-1", "%", "=", 100],
  ["CC[C@@]1(O)C(=O)OCc2c1cc1n(c2=O)Cc2cc3c(COCCN(C)C)c(O)ccc3nc2-1", "%", "=", 188],
  ["CC[C@@]1(O)C(=O)OCc2c1cc1n(c2=O)Cc2cc3c(N)cccc3nc2-1", "%", "=", 94],
  ["CC[C@@]1(O)C(=O)OCc2c1cc1n(c2=O)Cc2cc3c(CN4CCN(C)CC4)c(O)ccc3nc2-1", "%", ">", 200],
  ["CC[C@@]1(O)C(=O)OCc2c1cc1n(c2=O)Cc2cc3cc(CN)ccc3nc2-1", "%", "=", 112],
  ["CC[C@@]1(O)C(=O)OCc2c1cc1n(c2=O)Cc2cc3c(CNCCN(C)C)c(O)ccc3nc2-1", "%", ">", 94],
  ["CC[C@@]1(O)C(=O)OCc2c1cc1n(c2=O)Cc2cc3ccccc3nc2-1", "%", "=", 118],
  ["CC[C@@]1(O)C(=O)OCc2c1cc1n(c2=O)Cc2cc3c(CNC4CC4)c(O)ccc3nc2-1", "%", "=", 131],
  ["CC[C@@]1(O)C(=O)OCc2c1cc1n(c2=O)Cc2cc3c(CN(C)C)cccc3nc2-1", "%", "=", 88],
  ["CC[C@@]1(O)C(=O)OCc2c1cc1n(c2=O)Cc2cc3c(C[N+](C)(C)C)c(O)ccc3nc2-1", "%", ">", 200],
  ["CC[C@@]1(O)C(=O)OCc2c1cc1n(c2=O)Cc2cc3c(C=O)c(O)ccc3nc2-1", "%", ">", 75],
  ["CC[C@@]1(O)C(=O)OCc2c1cc1n(c2=O)Cc2cc3c(CN4CCOCC4)cccc3nc2-1", "%", "=", 144],
  ["CCC1(O)C(=O)OCc2c1cc1n(c2=O)Cc2c-1nc1ccccc1c2CCN(C)C(=O)OCc1ccccc1 (centres undefined)", "%", "=", 62],
  ["CC[C@@]1(O)C(=O)OCc2c1cc1n(c2=O)Cc2cc3c(CN4CCOCC4)c(O)ccc3nc2-1", "%", "=", 83]
]}

Source listed as ChEMBL document CHEMBL1125761.
